Source: ChEMBL document CHEMBL3507680

assay: Human HepG2 cell viability assay in 384 well format; type: toxicity, cell-based; parameters: dose 125 nL, time 70.5 hour; concentration not given beside the values; details: HepG2 cells, read-out: Inhibition
Each entry below carries its recorded cytotoxicity at 70.5 h.
Expressed in %, but write only the number.

Below: 5 compounds and their reported cytotoxicity at 70.5 h.
Can you look up the measured cytotoxicity at 70.5 h of COCC1CC2(CCN(C(=O)c3cc(C)oc3C)CC2)CN1C(C)C (stereo unspecified) for me? 0.799

Can you look up the measured cytotoxicity at 70.5 h of COc1ncccc1CNC(=O)N(Cc1ccc(F)cc1F)C1CC1 for me? -12.4

Can you look up the measured cytotoxicity at 70.5 h of Cn1ccc(C(=O)N2C[C@@H]3CCN(c4cccnc4)C[C@@H]3C2)n1 for me? -4.89

Can you look up the measured cytotoxicity at 70.5 h of CC(NC(=O)N1CCc2ccccc2C1)c1nncn1C (stereo unspecified) for me? -13.5

Can you look up the measured cytotoxicity at 70.5 h of Cc1nc2cc(O)nn2c(C)c1CCC(=O)NCCc1ccccc1 for me? 10.3

Further cases:
Can you look up the measured cytotoxicity at 70.5 h of COc1ccc(C2=CCN(C(=O)C3CCCN(C(N)=O)C3)CC2)cc1 (stereo unspecified) for me? -6.51

Can you look up the measured cytotoxicity at 70.5 h of Cc1ccc(N2CCCN(C(=O)C3(C#N)CCCCC3)CC2)nn1 for me? -0.352

Can you look up the measured cytotoxicity at 70.5 h of CCC(C)Sc1nncn1-c1ccc(OC)nc1 (stereo unspecified) for me? 5.95

Can you look up the measured cytotoxicity at 70.5 h of Cc1nn(C)cc1S(=O)(=O)N(CCc1ccccc1)Cc1ccn(C)n1 for me? -4.26
